Entries annotated with measured z-score
Experiment: RPMI8226 myeloma cell viability, profiling panel, resazurin fluorescence, basal, 24 h, PK04 Diversity Set (AID 1180);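 also: RPMI8826 multiple myeloma cell line at 5000 cells per well; test concentration not given here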
Conditions: higher = more signal
Form: value (number only, do not type unit).

# annotated cases, reported z-score shown
COCCOC(=O)N1C(=O)[C@@]2(c3cc(C#CCNC(N)=O)ccc31)[C@H](C(=O)NC[C@H](O)c1ccccc1)[C@H]1C(=O)O[C@H](c3ccccc3)[C@H](c3ccccc3)N1[C@@H]2c1ccccc1OCCO: 0.952
COCC(=C=CC[C@H](O)c1ccccc1OCCO)C[C@H](O)c1cc(Cl)cc(Cl)c1O: -0.207
COCCOC(=O)N1C(=O)[C@@]2(c3cc(C#CCCO)ccc31)[C@H](C(=O)N1CCN(c3ncccn3)CC1)[C@H]1C(=O)O[C@H](c3ccccc3)[C@H](c3ccccc3)N1[C@@H]2c1ccccc1OCCO: 0.485
CCOc1cc(C(O)C2C=CC3C(=O)N(c4ccccc4)C(=O)C3N2Nc2ccccc2)ccc1O (centres undefined): -0.0963
C[C@@H]1ON(c2cccc(C(=O)OC(C)(C)C)c2)[C@H](c2ccc(Br)cc2)[C@H]1C(=O)N1C(=O)OC[C@H]1Cc1ccccc1: 1.25

I am curious: what z-score value has been reported for CCCCCCC#C[Si](O[C@H](c1ccccc1)c1cn([C@H](CO)Cc2ccccc2)nn1)(C(C)C)C(C)C ?
0.881

Same for COc1ccc(CCNC(=O)[C@@H]2c3ccccc3C(=O)N(C3Cc4ccccc4C3)[C@H]2c2ccc(CO)cc2)cc1
-0.303

Same for CC(=O)N1Cc2ccccc2C[C@@]2(COC(c3ccc(OCCCO)cc3)=N2)C1=O
0.266

Same for COCCOC(=O)N1C(=O)[C@@]2(c3cc(C#Cc4ccc(OC)cc4)ccc31)[C@H](c1ccccc1OCCO)N1[C@H](c3ccccc3)[C@H](c3ccccc3)OC(=O)[C@H]1[C@@H]2C(=O)N1CCN(c2ncccn2)CC1
0.0636

Same for C=CCOC(=O)[C@H]1[C@@H]2C(=O)O[C@@H](c3ccccc3)[C@@H](c3ccccc3)N2[C@@H](c2ccc(OCCOC(=O)[C@H]3C[C@H]4C(=O)N5CCC[C@H]5C(=O)N4[C@H]3c3ccc(O)cc3)cc2)[C@]12C(=O)Nc1ccc(I)cc12
-0.215

---

Entries annotated with measured composite z-score
Experiment: small-molecule binders of probe aNOTCH2, primary screen, biochemical, small-molecule microarray, 635/667 nm fluorescence (AID 1121);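 also: score merges feature fluorescence read at 667 nm with its signal to noise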
Details: higher = more signal
Form: value (number only, do not type unit).

# annotated cases, reported composite z-score shown
COCCOC(=O)N1C(=O)[C@@]2(c3cc(C#Cc4ccc(OC)cc4)ccc31)[C@H](c1ccccc1OCCO)N1[C@H](c3ccccc3)[C@H](c3ccccc3)OC(=O)[C@H]1[C@@H]2C(=O)N1CCN(c2ncccn2)CC1: -0.131
CN1C(=O)C2C=CC(C(O)C3CCCCC3)N(Nc3ccc([N+](=O)[O-])cc3[N+](=O)[O-])C2C1=O (stereo not drawn): 0.0302

I am curious: what composite z-score value has been reported for COCCOC(=O)N1C(=O)[C@@]2(c3cc(C#Cc4ccc(OC)cc4)ccc31)[C@H](C(=O)N1CCCCCCC1)[C@H]1C(=O)O[C@H](c3ccccc3)[C@H](c3ccccc3)N1[C@@H]2c1ccc(OCCO)cc1 ?
0.711

Same for CC(C)N1C(=O)c2ccccc2[C@](C)(C(=O)NCc2ccccc2)[C@@H]1c1ccc(CO)cc1
-0.0323

Same for COc1ccc(CCNC(=O)[C@@]2(C)c3ccccc3C(=O)N(Cc3cc(F)cc(C(F)(F)F)c3)[C@H]2c2ccc(CO)cc2)cc1
-0.054

Same for CCN(CC)c1ccc(N2CC=CC34O[C@@H]5/C=C\CCC(C)OC(=O)C5[C@H]3C(=O)N(C(CO)C(C)C)[C@@H]4C2=O)cc1 (stereo partly drawn)
-0.175

Same for CCCCCN1CC=CC23O[C@@H]4/C=C\CCCOC(=O)C4[C@H]2C(=O)N(CCCO)[C@@H]3C1=O (stereo partly drawn)
-0.104

Same for COc1ccc(C#Cc2ccc3c(c2)[C@]2(C(=O)N3)[C@H](c3ccccc3OCCO)N3[C@H](c4ccccc4)[C@H](c4ccccc4)OC(=O)[C@H]3[C@@H]2C(=O)O)cc1
0.114

Same for C=C(CCCC)C(=O)CC[C@@H](OC(=O)c1cccnc1)c1ccc(CO)o1
-0.127

Same for COc1ccc([Si](C)(C)[C@@H]2[C@@H](CC(=O)N3Cc4ccccc4C[C@H]3CO)O[C@]3(C(=O)N(C)c4c(Br)cc(C)cc43)[C@H]2C)cc1
-0.164

Same for CC(C)(C)OC(=O)CC[C@]1(C(=O)NCC(O)CO)COC(c2ccc(OCCCO)cc2)=N1 (stereo partly drawn)
-0.106

Same for C=CCOC(=O)[C@@H]1[C@H]2C(=O)O[C@H](c3ccccc3)[C@H](c3ccccc3)N2[C@H](c2ccc(OCCOC(=O)[C@@H]3C[C@@H]4C(=O)N[C@@H](CCCCN(C)C)C(=O)N4[C@@H]3c3ccc(O)cc3)cc2)[C@@]12C(=O)Nc1ccc(I)cc12
-0.177

Same for COCCOC(=O)N1C(=O)[C@@]2(c3cc(C#CC4=CCCCC4)ccc31)[C@H](C(=O)N1CCc3cc(OC)c(OC)cc3C1)[C@H]1C(=O)O[C@H](c3ccccc3)[C@H](c3ccccc3)N1[C@@H]2c1ccc(OCCO)cc1
-0.152

Same for CCCCC(O)C1C=CC2C(=O)N(c3ccccc3)C(=O)C2N1Nc1ccccc1F (stereo not drawn)
0.387

Same for CN1C(=O)C2C=CC(C(O)C3=C[C@H]4C[C@@H](C3)C4(C)C)N(Nc3ccccc3)C2C1=O (stereo partly drawn)
-0.0712

Same for O=C1[C@H]2C=C(Br)[C@H](C[C@@H]2c2ccccc2)[C@@]12CO2
-0.0817

Same for CCCC[C@@H]1C[C@H]1[C@@H](NC(=O)c1ccco1)c1ccc(Cl)cc1
-0.0164

Same for O=C(NCc1ccccc1)[C@@]1(CCS(=O)(=O)c2ccccc2)N=C(c2ccc(OCCCO)cc2)O[C@H]1c1ccccc1
-0.0128

Same for CCCC[C@@H]1C[C@H]1[C@@H](NC(=O)c1ccco1)c1ccc(C(=O)OC)cc1
-0.11

Same for COc1ccc([Si](C)(C)[C@@H]2[C@@H](CCO)O[C@]3(C(=O)N(Cc4ccc(N5C(=O)COc6ccccc65)cc4)c4ccccc43)[C@H]2C)cc1
-0.0924

Same for COc1cc2c(cc1OC)CN(C(=O)[C@H]1[C@@H]3C(=O)O[C@@H](c4ccccc4)[C@@H](c4ccccc4)N3[C@@H](c3ccc(O)cc3)[C@]13C(=O)Nc1ccc(C#CCNC(N)=O)cc13)CC2
-0.165

Same for CC(C)(C)OC(=O)CC[C@@]1(C(=O)NCCN2CCOCC2)N=C(c2ccc(OCCCO)cc2)O[C@@H]1c1ccccc1N=[N+]=[N-]
0.103

Same for CC(=O)n1cc(C(O)C2C=CC3C(=O)N(C)C(=O)C3N2Nc2ccccc2)c2ccccc21 (stereo not drawn)
0.027

Same for CCOC(=O)[C@H]1C/C=C/C[C@H](C(=O)OCC)C(=O)O[C@H]2[C@@H](OC)O[C@H](CO)[C@@H](OC(=O)Nc3ccc(C#N)cc3)[C@@H]2OC1=O
-0.159

Same for COC(=O)C=C(CC(O)c1cccc(Cl)c1)OC (stereo not drawn)
0.436

Same for O=C1NC(=O)C2C1C=CC(C(O)c1ccccc1)N2Nc1ccc(Cl)cc1Cl (stereo not drawn)
-0.0974

Same for COCCCNC(=O)[C@@]1(Cc2ccccc2)N=C(c2ccc(OCCCO)cc2)O[C@H]1c1ccccc1
0.308

Same for CN1C(=O)C2C=CC(C(O)c3ccc(I)cc3)N(N3CCCCC3)C2C1=O (stereo not drawn)
0.0196

---

Test: Plasmodium falciparum growth inhibition, primary screen, strain 3D7, DAPI fluorescence, 100 nL (AID 1184);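 also: parasites grown inside human red blood cells in medium with human serum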
Conditions: P. falciparum 3D7 growth, 3 d, higher = more signal
Label rule met when z-score is at or above -0.4; anything below gets rule not met.

Solved entries:
COc1ccc(C(=O)O[C@H]2CC[C@]3(C)C4=C(CCC3C2(C)C)[C@]2(C)CC[C@H]([C@H](C)CCCC(C)C)[C@@]2(C)CC4)cc1 (some centres not stated): rule met
O=C1c2ccccc2[C@@]2(Cc3ccccc3N(CC(F)(F)F)C2=O)[C@H](c2ccc(CO)cc2)N1Cc1ccccc1Cl: rule not met
C=CC[C@]12N=C(c3ccc(OCCCO)cc3)O[C@H]1c1ccccc1N(Cc1ccccc1)C2=O: rule not met
O=C1O[C@@H](c2ccccc2)[C@@H](c2ccccc2)N2[C@@H](c3ccccc3OCCO)[C@]3(C(=O)Nc4ccc(C#CC5=CCCCC5)cc43)[C@@H](C(=O)Nc3nc4ccccc4s3)[C@H]12: rule not met
C[N+](C)(C)CCCCNC(=O)[C@H]1C[C@H]2C(=O)N[C@@H](Cc3ccccc3)C(=O)N2[C@H]1c1ccc(O)cc1: rule met

Could you now consider this next compound?
Does COC(=O)[C@@]1(Cc2ccc(OC)cc2)[C@H]2c3cc(C(=O)N4CCCC4)n(Cc4ccc(OC)c(OC)c4)c3C[C@H]2CN1C(=O)c1ccccc1 have a reported z-score of at least -0.4?
rule not met
